Target: T1, MICB005.His (human MICB*005 alpha 3 domain, His tagged) (human)
T1 construct: also called huMICB*005 alpha 3-his
T1 chain: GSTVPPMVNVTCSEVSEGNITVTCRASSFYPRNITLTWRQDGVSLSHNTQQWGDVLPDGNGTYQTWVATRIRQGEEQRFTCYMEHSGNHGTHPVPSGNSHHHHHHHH
Assay: SPR, antibody captured;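 note: SPR with antibody held by surface-bound anti-Fc while His-tagged alpha three domains flow over, Kd derived by fitting a one-to-one binding model to sensograms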
property: Kd (nM)
Report the figure in nM without appending any unit label.

Observe how each entry below is paired with its result.
- binder: "3C9.10 (antibody, V domains shown, Mouse hybridoma antibody; constant regions differ by assay (hybridoma mouse IgG, recombinant human IgG1 or mouse IgG2a)) VH: QVQLKESGPGLVAPSQSLSITCTVSGFSLTGSGVNWVRQPPGKGLEWLGMIWGDGNTDYNSALKSRLSISKDNSKSQIFLKMNSLQTDDTARYYCARGAYYGKRWYFDVWGAGTTVTVSS VL: DIQMTQTTSSLSASLGDRVTISCSASQGISNYLNWYQQKPDGTVKLLIYYTSSLHSGVPSRFSGSGSGTDYSLTISNLEPEDIATYYCQQYSKLPPTFGGGTKVEIK"
  Kd / nM: 45
- binder: "3E11 (antibody, V domains shown, Mouse hybridoma antibody; constant regions differ by assay) VH: EIQLQQSGPELVKPGASVKVSCTASGYAFTKYNIYWVKQSHGKSLEWIGYIDPYTGGTISNQKFTGRATLTVDKSSSTAYLHLNSLTSEDSAVYYCARPGSYWYFGVWGAGTTVTVSS VL: DILMTQTPLSLPVSLGDQASISCRSSQSIVYTNGNTNLEWYLQKPGQSPKLLIYKVSNRFSGVPDRFSGSGSGTDFTLKISRVEAEDLGVYYCFQASYVPFTFGSGTKVEIK"
  Kd / nM: 6.8

Incoming: Would you mind telling me what Kd value was observed for 2E5.2.3 (antibody, V domains shown, Mouse hybridoma antibody; constant regions differ by assay) VH: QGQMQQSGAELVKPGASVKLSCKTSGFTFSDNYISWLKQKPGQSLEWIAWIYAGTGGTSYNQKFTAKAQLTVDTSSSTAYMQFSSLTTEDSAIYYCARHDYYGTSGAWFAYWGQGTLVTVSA VL: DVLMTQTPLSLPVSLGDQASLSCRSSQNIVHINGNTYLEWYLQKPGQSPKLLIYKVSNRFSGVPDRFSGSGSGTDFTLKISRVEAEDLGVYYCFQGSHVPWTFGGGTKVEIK ?
Outgoing: 2.7
